# targetOrTestSystem: Histone-lysine N-methyltransferase EHMT2 (Homo sapiens, UniProt Q96KQ7)
# Sequence (Q96KQ7 whole entry): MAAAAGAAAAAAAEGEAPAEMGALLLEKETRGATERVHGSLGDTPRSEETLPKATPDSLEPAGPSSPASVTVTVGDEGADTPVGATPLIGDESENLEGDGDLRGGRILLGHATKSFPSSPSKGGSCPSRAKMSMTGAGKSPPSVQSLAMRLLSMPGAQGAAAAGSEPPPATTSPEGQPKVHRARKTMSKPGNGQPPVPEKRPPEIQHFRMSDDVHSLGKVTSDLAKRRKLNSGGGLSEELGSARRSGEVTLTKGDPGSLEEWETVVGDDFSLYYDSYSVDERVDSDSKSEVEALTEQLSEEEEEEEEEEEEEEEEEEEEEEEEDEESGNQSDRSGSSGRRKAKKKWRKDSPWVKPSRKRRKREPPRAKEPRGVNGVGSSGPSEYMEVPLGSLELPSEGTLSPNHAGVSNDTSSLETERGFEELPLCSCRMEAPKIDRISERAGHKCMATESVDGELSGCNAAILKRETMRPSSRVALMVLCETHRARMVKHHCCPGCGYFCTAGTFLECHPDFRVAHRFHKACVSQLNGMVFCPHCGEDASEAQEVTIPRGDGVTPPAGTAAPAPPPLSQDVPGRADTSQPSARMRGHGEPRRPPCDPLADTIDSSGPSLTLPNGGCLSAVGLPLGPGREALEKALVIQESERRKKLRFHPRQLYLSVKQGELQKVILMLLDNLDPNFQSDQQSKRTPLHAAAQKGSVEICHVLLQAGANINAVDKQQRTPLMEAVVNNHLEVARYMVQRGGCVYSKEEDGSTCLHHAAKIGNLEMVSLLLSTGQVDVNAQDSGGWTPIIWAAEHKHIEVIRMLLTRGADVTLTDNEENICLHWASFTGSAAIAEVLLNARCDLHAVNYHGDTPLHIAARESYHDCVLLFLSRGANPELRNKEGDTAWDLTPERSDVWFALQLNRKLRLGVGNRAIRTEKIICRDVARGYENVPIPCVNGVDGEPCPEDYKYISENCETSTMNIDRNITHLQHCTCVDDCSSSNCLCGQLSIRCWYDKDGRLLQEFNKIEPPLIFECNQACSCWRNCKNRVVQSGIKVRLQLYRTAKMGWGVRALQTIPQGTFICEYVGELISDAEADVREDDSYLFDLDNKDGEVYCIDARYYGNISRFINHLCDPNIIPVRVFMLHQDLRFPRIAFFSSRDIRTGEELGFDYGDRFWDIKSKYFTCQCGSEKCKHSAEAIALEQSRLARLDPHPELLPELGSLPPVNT
pIC50: −log10 of the molar value.
experimentalReadout: pIC50

Name the reported pIC50 value associated with the compound `NC(=O)c1cccc(C#C[C@@H](CC[C@H](N)C(=O)O)C[C@H]2O[C@@H](n3cnc4c(N)ncnc43)[C@H](O)[C@@H]2O)c1` < 5.00

###

# targetOrTestSystem: Thiopurine S-methyltransferase (Homo sapiens, UniProt P51580)
# Sequence (P51580 whole entry): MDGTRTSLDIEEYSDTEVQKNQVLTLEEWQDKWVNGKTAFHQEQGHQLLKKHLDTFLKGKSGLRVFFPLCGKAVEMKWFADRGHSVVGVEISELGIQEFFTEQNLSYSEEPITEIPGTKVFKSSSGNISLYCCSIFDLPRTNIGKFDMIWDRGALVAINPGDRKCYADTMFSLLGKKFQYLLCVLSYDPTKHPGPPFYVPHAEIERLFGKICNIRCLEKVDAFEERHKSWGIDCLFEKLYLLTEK
experimentalReadout: pIC50
Recall that pIC50 is obtained by taking minus log10 of the concentration measured in molar.

Identify the measured pIC50 of `NC(=O)c1cccc(C#C[C@@H](CC[C@H](N)C(=O)O)C[C@H]2O[C@@H](n3cnc4c(N)ncnc43)[C@H](O)[C@@H]2O)c1` for Thiopurine S-methyltransferase (Homo sapiens, UniProt P51580). 6.00

###

# targetOrTestSystem: Histone-lysine N-methyltransferase ASH1L (Homo sapiens)
experimentalReadout: IC50

IC50 lookup needed for `NC(=O)c1cccc(C#C[C@@H](CC[C@H](N)C(=O)O)C[C@H]2O[C@@H](n3cnc4c(N)ncnc43)[C@H](O)[C@@H]2O)c1` , thanks. > 10 µM

###

# targetOrTestSystem: PNMT (phenylethanolamine N-methyltransferase) (Homo sapiens)
# measurementNotes: Inhibition of human PNMT expressed in Escherichia coli at 1 uM assessed as reduction in SAH level using DL-normetanephrine as substrate in presence of SAM incubated for 45 mins by LC-MS/MS analysis relative to control
# conditionNotes: recombinant human PNMT expressed in Escherichia coli, probe DL-normetanephrine
experimentalReadout: inhibition at 0.75 h, 1 µM (%)
Numeric answer only, unit % assumed.

Fill blank: measured inhibition at 0.75 h, 1 µM of the compound `NC(=O)c1cccc(C#C[C@@H](CC[C@H](N)C(=O)O)C[C@H]2O[C@@H](n3cnc4c(N)ncnc43)[C@H](O)[C@@H]2O)c1` is ____. 0

###

# targetOrTestSystem: PNMT (phenylethanolamine N-methyltransferase) (Homo sapiens, UniProt P11086)
# Sequence (P11086 whole entry): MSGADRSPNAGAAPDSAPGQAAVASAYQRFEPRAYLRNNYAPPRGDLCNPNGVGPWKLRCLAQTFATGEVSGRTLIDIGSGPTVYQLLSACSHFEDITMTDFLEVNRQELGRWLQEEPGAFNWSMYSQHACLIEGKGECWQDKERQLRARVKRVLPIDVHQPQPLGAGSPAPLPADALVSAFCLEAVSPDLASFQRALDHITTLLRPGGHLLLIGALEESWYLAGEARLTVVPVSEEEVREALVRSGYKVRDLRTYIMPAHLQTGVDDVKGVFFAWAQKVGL
# measurementNotes: Inhibition of human PNMT expressed in Escherichia coli at 10 uM assessed as reduction in SAH level using DL-normetanephrine as substrate in presence of SAM incubated for 45 mins by LC-MS/MS analysis relative to control
# conditionNotes: recombinant human PNMT expressed in Escherichia coli, probe DL-normetanephrine
experimentalReadout: inhibition at 0.75 h, 10 µM (%)
Express your answer in %, writing the number without its unit.

Query (compound): `NC(=O)c1cccc(C#C[C@@H](CC[C@H](N)C(=O)O)C[C@H]2O[C@@H](n3cnc4c(N)ncnc43)[C@H](O)[C@@H]2O)c1` ; field requested: inhibition at 0.75 h, 10 µM 26
